Ref: ChEMBL document CHEMBL3988442

molecular target: Arginase-2, mitochondrial (Homo sapiens); assay: in vitro enzyme assay to detect the production of urea directly proportional to the activity of Arginase II; type: functional; set-up: scale not given: in the data most compounds retested in dose-response had high values; settings: 33.3 µM

| molecule | value_unit | Percent Effect |
| --- | --- | --- |
| CC(C)(C)c1nnc(CN2CCn3c(nnc3C3CC3)C2)o1 | % | 0.444 |
| CC(C(=O)N1CCCC1)N1CCC(c2nccn2CC2CCC2)CC1 (stereo not given) | % | 0.35 |
| CC(C)c1nc2c(n1C)CCN(CC(=O)Nc1nccs1)C2 | % | 3.58 |
| CCn1cnnc1CNC(=O)CCC(=O)c1ccc2c(c1)OCCO2 | % | -10 |
| Cc1ccc2cc(CNCCCN3CCOCC3)c(=O)[nH]c2c1 | % | -0.696 |

###

biological target: Protein translocase subunit SecA (Escherichia coli (strain K12)); experiment: Assay to Identify E. coli SecA ATPase Inhibitors; assay type: functional; set-up: scale not given: direction of the effect not stated beside the values; settings: 30 µM
Measured potencies and affinities stand elsewhere.
Entries and their Percent Effect
readout_label: Percent Effect (%)

| molecule | target_or_test_system | observed_value |
| --- | --- | --- |
| COc1ncccc1C(=O)N1CCn2c(COCC3CC3)cnc2C1C (centres undefined) | Protein translocase subunit SecA (Escherichia coli (strain K12)) | -3.37 |
| Cc1cc2n(n1)CC(CNCc1ccc(-n3cccn3)nc1)CN2 (centres undefined) | Protein translocase subunit SecA (Escherichia coli (strain K12)) | -1.63 |
| CCOCC(O)CN1CCN(C(=O)c2cccnc2OC)CC1 (centres undefined) | Protein translocase subunit SecA (Escherichia coli (strain K12)) | -3.44 |
| CNC(=O)c1ccc(C(=O)N2CCCC2c2cnn(C)c2)cn1 (centres undefined) | Protein translocase subunit SecA (Escherichia coli (strain K12)) | -3.23 |
| O=C(C[C@@H]1COC[C@H]2CN(Cc3ccc(F)cc3)C[C@@H]12)N1CCCCO1 | Protein translocase subunit SecA (Escherichia coli (strain K12)) | -4.42 |
| Cc1cccn2c(=O)cc(OC(=O)c3ccccc3)nc12 | Protein translocase subunit SecA (Escherichia coli (strain K12)) | 1.09 |
| CCN1CC2(CC1=O)CN(Cc1cnn(C)c1)CCN(C(=O)C(C)C)C2 (centres undefined) | Protein translocase subunit SecA (Escherichia coli (strain K12)) | -6.68 |
| Cc1noc(C(C)C)c1C(=O)N1CCCN(Cc2cscn2)CC1 | Protein translocase subunit SecA (Escherichia coli (strain K12)) | -4.04 |
| Cn1cc(C(=O)NC[C@@H]2OC[C@H]3CN(S(C)(=O)=O)CC[C@H]32)cn1 | Protein translocase subunit SecA (Escherichia coli (strain K12)) | -0.605 |
| CC(C)(C)c1n[nH]c(C2CN(C(=O)CCc3cscn3)CCO2)n1 (centres undefined) | Protein translocase subunit SecA (Escherichia coli (strain K12)) | -2.17 |
| C[C@H]1C[C@@H]2CCN(C(=O)c3ccncn3)C[C@H]2O1 | Protein translocase subunit SecA (Escherichia coli (strain K12)) | -5.91 |
| O=C(NCCNC(=O)c1scnc1Cl)c1ccccc1 | Protein translocase subunit SecA (Escherichia coli (strain K12)) | -3.41 |
| CCN(CC)C(=O)c1ccn(COc2ccccc2)n1 | Protein translocase subunit SecA (Escherichia coli (strain K12)) | -2.87 |
| O=C1CC(c2ccsc2)c2sc(C(=O)O)c(-c3ccccc3)c2N1 (centres undefined) | Protein translocase subunit SecA (Escherichia coli (strain K12)) | -4.21 |
| CC1=N[C@@]2(CC[C@@H]3CN(S(=O)(=O)N(C)C)C[C@@H]32)C(=O)N1CC(C)C | Protein translocase subunit SecA (Escherichia coli (strain K12)) | 1.29 |
| Cc1cc(-c2cnn(CCNC(=O)C3CC3)c2C2CC2)on1 | Protein translocase subunit SecA (Escherichia coli (strain K12)) | -4.16 |
| COc1cccc(N2CCN(CC(O)c3cc(C)ccc3C)CC2)c1 (centres undefined) | Protein translocase subunit SecA (Escherichia coli (strain K12)) | -1.87 |
| Cc1ccc(-c2noc(CN3CCOC(CN(C)C)C3)n2)cc1F (centres undefined) | Protein translocase subunit SecA (Escherichia coli (strain K12)) | -2.58 |
| CN(C)c1ncc(CN2CCOC(C(=O)Nc3ccccc3)C2)cn1 (centres undefined) | Protein translocase subunit SecA (Escherichia coli (strain K12)) | -0.531 |
| COc1cc(CN(C)C(=O)Cc2c(C)nn(C)c2C)ccc1OC(F)F | Protein translocase subunit SecA (Escherichia coli (strain K12)) | 3.46 |
| Cc1nccc(-c2cccc(NCC(=O)N3CCCCCCC3)c2)n1 | Protein translocase subunit SecA (Escherichia coli (strain K12)) | -8 |
| Cc1nc(-c2cccc(C(=O)O)c2)cc(C2CCN(C(C)C)C2)n1 (centres undefined) | Protein translocase subunit SecA (Escherichia coli (strain K12)) | -2.85 |
| CCn1cnnc1C1CCN(C(=O)COCCc2ccccc2)CC1 | Protein translocase subunit SecA (Escherichia coli (strain K12)) | -1.96 |
| COCc1nn(C(C)C)c2c1CCN(Cc1cccs1)C2 | Protein translocase subunit SecA (Escherichia coli (strain K12)) | -0.481 |
| COc1ccccc1C(O)CNCc1c(C(C)C)nn(C)c1N(C)C (centres undefined) | Protein translocase subunit SecA (Escherichia coli (strain K12)) | -5.07 |
| CC(C)C(NC(=O)Cn1ccc(=O)n(C)c1=O)c1ccc(F)cc1 (centres undefined) | Protein translocase subunit SecA (Escherichia coli (strain K12)) | 1.48 |
| Fc1ccc(CN2CCCC(Cn3cncn3)C2)c2ncccc12 (centres undefined) | Protein translocase subunit SecA (Escherichia coli (strain K12)) | -5.33 |
| Cc1cnn(CCC(=O)N2CCN(c3nc(C)cs3)CC2)c1 | Protein translocase subunit SecA (Escherichia coli (strain K12)) | -5.41 |
| CN1CCC/C1=N\S(=O)(=O)c1ccc(NC(=O)c2cccs2)cc1 | Protein translocase subunit SecA (Escherichia coli (strain K12)) | 0.351 |
| Cc1cn2c(n1)CCC(NC(=O)c1cc(Br)cn1C)C2 (centres undefined) | Protein translocase subunit SecA (Escherichia coli (strain K12)) | -8.37 |
| O=C(Nc1ccccc1)c1nn(C2CCS(=O)(=O)C2)c2c1CCCC2 (centres undefined) | Protein translocase subunit SecA (Escherichia coli (strain K12)) | -4.15 |
| CN1CCN(Cc2cn3c(n2)CN(C(=O)N2CCOCC2)CC3)CC1 | Protein translocase subunit SecA (Escherichia coli (strain K12)) | -6.56 |
| c1ccc(OCc2nnc3n2CCN(CC2CCOCC2)C3)nc1 | Protein translocase subunit SecA (Escherichia coli (strain K12)) | -2.49 |
| Cn1cnc2c1C(COCC1CCOCC1)CN(C(=O)c1ccoc1)C2 (centres undefined) | Protein translocase subunit SecA (Escherichia coli (strain K12)) | 1.37 |

###

target: Tyrosyl-tRNA synthetase, putative (Trypanosoma cruzi (strain CL Brener)) (UniProt Q4DSP6); assay: Trypanosoma cruzi tyrosyl tRNA synthetase (TcYRS) _High Tyrosine SOP; format: functional; set-up: scale not given: in the data most compounds retested in dose-response had high values; details: 30 µM
Sequence (Q4DSP6 as listed by the source): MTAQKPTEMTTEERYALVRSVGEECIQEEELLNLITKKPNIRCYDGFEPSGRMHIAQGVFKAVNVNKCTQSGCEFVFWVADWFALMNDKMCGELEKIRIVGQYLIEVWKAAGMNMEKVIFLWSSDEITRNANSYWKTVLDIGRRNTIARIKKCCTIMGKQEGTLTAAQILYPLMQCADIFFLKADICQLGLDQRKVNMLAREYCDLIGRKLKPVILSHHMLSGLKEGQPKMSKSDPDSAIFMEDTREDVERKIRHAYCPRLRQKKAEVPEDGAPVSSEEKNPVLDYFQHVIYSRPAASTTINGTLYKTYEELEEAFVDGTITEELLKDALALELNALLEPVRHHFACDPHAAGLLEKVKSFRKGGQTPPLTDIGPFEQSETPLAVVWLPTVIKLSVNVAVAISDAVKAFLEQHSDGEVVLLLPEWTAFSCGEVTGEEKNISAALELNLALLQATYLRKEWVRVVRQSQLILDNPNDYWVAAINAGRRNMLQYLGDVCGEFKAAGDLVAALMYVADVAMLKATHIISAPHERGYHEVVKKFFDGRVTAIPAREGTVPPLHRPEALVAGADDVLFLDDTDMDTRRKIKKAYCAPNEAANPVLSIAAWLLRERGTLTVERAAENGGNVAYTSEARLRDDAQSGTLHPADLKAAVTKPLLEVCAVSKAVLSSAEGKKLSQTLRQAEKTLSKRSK
Entries and their Percent Effect

| compound | Percent Effect |
| --- | --- |
| c1ccc(Cn2cc3c(n2)C(COCC2CC2)OCC3)nc1 (stereo not given) | 1.06% |
| CC(Cn1cccn1)NC(=O)CCc1ccc(S(N)(=O)=O)cc1 (stereo not given) | 6.67% |
| COc1cc2nc(C)n(CC(=O)O)c(=O)c2cc1OC | 8.47% |
| COc1cccc(C(=O)N2CCCCC2CNC(N)=O)c1 (stereo not given) | 3.45% |
| CCn1nc2c(cc1=O)CN(CC(=O)Nc1nc(C)c(C)s1)CC2 | 4.9% |
| CC1(C)Cc2ccccc2-c2nc(NCCO)[nH]c(=O)c21 | 6.38% |
| Cc1cc(C2CCCN(CCCS(=O)(=O)c3ccccc3)C2)n[nH]1 (stereo not given) | 4.43% |
| Cc1ccc2cc(C(=O)NCCn3nc4ccccn4c3=O)[nH]c2c1 | -1.44% |
| COc1ccc(C2CC(=O)Oc3cc(C)[nH]c(=O)c32)cc1 (stereo not given) | 2.12% |
| O=C(Nc1ccccc1)C1=CC2(CCNCC2)c2ccccc21 | -2.9% |
| O=C1CN(Cc2ccc(-c3ccccc3C(=O)O)cc2)CCN1 | 1.06% |
| Cn1ccc(CN2CCCC2c2ccc3c(c2)OCCCO3)cc1=O (stereo not given) | 9.09% |
| CN(C)CC(=O)N1Cc2nc(C(=O)NCc3ccncc3)oc2C1 | 0% |
| COCC(=O)N1CC[C@@H](N2CCOCC2)[C@@H]1Cc1ccccc1 | 17.4% |
| CCCC(=O)N1CC[C@@H]2[C@H](CC1)N(Cc1cccnc1)CCS2(=O)=O | 8.91% |
